IC50 tested on UniProt P35968: recorded values
Sequence (P35968 whole entry): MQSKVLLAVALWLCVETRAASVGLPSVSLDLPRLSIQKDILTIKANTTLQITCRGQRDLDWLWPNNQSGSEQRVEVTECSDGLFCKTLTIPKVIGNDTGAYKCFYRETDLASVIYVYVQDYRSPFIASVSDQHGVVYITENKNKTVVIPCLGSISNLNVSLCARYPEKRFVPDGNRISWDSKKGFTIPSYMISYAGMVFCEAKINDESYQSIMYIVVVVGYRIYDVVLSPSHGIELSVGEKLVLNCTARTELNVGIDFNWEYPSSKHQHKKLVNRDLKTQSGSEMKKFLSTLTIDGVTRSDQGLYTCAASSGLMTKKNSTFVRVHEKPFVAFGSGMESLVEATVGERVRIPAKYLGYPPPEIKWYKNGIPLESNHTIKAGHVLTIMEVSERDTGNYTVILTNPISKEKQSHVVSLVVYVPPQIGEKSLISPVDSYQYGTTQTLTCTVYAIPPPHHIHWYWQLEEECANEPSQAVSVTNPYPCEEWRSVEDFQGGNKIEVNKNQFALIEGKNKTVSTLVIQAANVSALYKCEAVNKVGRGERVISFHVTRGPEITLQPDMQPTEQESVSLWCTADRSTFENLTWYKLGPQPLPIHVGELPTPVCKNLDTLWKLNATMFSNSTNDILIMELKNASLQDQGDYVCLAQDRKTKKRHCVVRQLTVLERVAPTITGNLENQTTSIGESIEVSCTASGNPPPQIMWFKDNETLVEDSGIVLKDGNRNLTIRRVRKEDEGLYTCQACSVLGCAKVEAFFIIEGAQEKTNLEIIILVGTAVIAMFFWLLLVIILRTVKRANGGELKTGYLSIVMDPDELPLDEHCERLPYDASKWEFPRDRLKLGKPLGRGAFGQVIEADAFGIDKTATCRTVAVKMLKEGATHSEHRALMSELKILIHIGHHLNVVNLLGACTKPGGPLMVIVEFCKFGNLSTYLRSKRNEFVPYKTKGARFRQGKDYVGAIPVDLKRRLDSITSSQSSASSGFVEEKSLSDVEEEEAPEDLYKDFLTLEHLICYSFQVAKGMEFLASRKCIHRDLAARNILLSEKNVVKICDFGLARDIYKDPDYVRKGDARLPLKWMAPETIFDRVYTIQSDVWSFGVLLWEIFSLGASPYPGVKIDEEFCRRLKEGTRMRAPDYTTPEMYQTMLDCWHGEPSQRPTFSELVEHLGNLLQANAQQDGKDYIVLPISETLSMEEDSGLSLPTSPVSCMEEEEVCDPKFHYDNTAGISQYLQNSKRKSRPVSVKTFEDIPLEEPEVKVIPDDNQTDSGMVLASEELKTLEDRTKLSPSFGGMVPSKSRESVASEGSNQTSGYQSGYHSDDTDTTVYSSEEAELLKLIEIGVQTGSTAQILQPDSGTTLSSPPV

{"columns": ["substance smiles", "IC50"],
 "data": [
  ["COc1ccc(-c2cc3c(NC(=O)C(C)C)ncnc3o2)cc1", "> 48 µM"],
  ["O=C(Nc1ncnc2oc(-c3cccnc3)cc12)C1CCCC1", "> 24 µM"],
  ["COc1ccc(-c2cc3c(NC(=O)CCSC)ncnc3o2)cc1", "> 47 µM"],
  ["COc1ccc(-c2cc3c(NC(=O)C4CCCCC4)ncnc3o2)cc1", "> 48 µM"]
]}

Would you kindly look at the next entry?
Ask: Find IC50 (UniProt P35968) for the entry COc1ccc(-c2cc3c(NC(=O)CC4CCCC4)ncnc3o2)cc1
Result: > 48 µM
